EXPERIMENT NOTES: recombinant UMI read abundance after kanamycin selection (control-corrected) (log10(CPM+1)); higher = more efficient recombination; extreme values may be limits of the assay; sequences stand for … in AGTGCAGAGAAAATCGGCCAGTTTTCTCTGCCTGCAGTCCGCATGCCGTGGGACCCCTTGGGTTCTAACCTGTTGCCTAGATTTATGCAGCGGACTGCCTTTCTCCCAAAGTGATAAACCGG…AGGTTGGTTTCACT; site = the 11-nt donor;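 further: IS621 bridge recombinase in Escherichia coli cells against a fixed T5 target plasmid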
Consider the following sequences; for each one, report its recombinant UMI read abundance (log10).

# example entries with known answers
{"RESIDUE CODES": "GGAGTGGCATGGACCGGTTTTCCCGGTAATCCGTATTTGTT (site GGAGTGGCTAA)", "RESULT": 1.06}
{"RESIDUE CODES": "ACCCTAGCATGGACCGGTTTTCCCGGTAATCCGTATTTGTT (site AGCCTAGCTAA)", "RESULT": 0.00512}
{"RESIDUE CODES": "CCGTTTACATGGACCGGTTTTCCCGGTAATCCGTATTTGCG (site CCGTTTACTAG)", "RESULT": 0}
{"RESIDUE CODES": "CGAGGACCATGGACCGGTTTTCCCGGTAATCCGTATTTGGA (site CGAGGACCTAC)", "RESULT": 0}

Consider the following items and state reported recombinant UMI read abundance (log10) for each.
1. TAGTCTTCATGGACCGGTTTTCCCGGTAATCCGTATTTGGT (site TAGCCTTCTAC)
2. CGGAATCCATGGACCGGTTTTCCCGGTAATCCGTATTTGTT (site GGGAATACTAA)
3. TGGCCGGCATGGACCGGTTTTCCCGGTAATCCGTATTTGGT (site TGGCCGGCTCC)
4. TAACGTCCATGGACCGGTTTTCCCGGTAATCCGTATTTGTA (site TAAGGTCCTTA)

output:
[0.322, 0, 0.022, 0.0133]

Consider the following items and state reported recombinant UMI read abundance (log10) for each.
1. GTTAAAGCATGGACCGGTTTTCCCGGTAATCCGTATTTGTA (site GTTAAAGCTTA)
2. ACAAAGGCATGGACCGGTTTTCCCGGTAATCCGTATTTGCT (site AGAAAGGCTAG)
3. AATTATGCATGGACCGGTTTTCCCGGTAATCCGTATTTGGA (site ATTTATGCTTC)
4. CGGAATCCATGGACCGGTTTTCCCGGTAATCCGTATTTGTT (site CGGAATCCTCC)
5. CTTCTCTCATGGACCGGTTTTCCCGGTAATCCGTATTTGTA (site CTTCTCACTTA)
6. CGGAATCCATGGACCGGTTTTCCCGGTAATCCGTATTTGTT (site GAGAATCCTAA)

output:
1. 2.59
2. 0
3. 1.25
4. 0.00652
5. 0.0108
6. 0.00637

###

Consider the following sequences; for each one, report its recombinant UMI read abundance (log10).
EXPERIMENT NOTES: recombinant UMI read abundance after kanamycin selection (control-corrected) (log10(CPM+1)); higher = more efficient recombination; extreme values may be limits of the assay; sequences stand for … in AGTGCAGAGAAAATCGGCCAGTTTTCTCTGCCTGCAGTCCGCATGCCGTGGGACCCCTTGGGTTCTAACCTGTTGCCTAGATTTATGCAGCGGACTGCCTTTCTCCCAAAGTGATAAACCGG…AGGTTGGTTTCACT; site = the 11-nt donor

{"RESIDUE CODES": "ACTGTAACATGGACCGGTTTTCCCGGTAATCCGTATTTGCT (site AATGTAACTAG)", "RESULT": 0.987}
{"RESIDUE CODES": "ACGTCTACATGGACCGGTTTTCCCGGTAATCCGTATTTGTG (site ACCTCTACTCA)", "RESULT": 0.39}
{"RESIDUE CODES": "CGTTAGACATGGACCGGTTTTCCCGGTAATCCGTATTTGGG (site CGTTAGACTCT)", "RESULT": 0.512}
{"RESIDUE CODES": "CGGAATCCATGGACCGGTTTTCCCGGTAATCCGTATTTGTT (site AGGATTCCTAA)", "RESULT": 0}

Consider the following items and state reported recombinant UMI read abundance (log10) for each.
1. AATGAGACATGGACCGGTTTTCCCGGTAATCCGTATTTGGT (site ACTGAGACTAC)
2. CCCTACTCATGGACCGGTTTTCCCGGTAATCCGTATTTGGG (site CCCTACTCTCC)
3. TAGAATACATGGACCGGTTTTCCCGGTAATCCGTATTTGCA (site CAGAATACTTG)
4. AGTAGAACATGGACCGGTTTTCCCGGTAATCCGTATTTGAG (site AATAGAACTCT)
5. CCCGGCCCATGGACCGGTTTTCCCGGTAATCCGTATTTGCA (site CCCGGTCCTTG)
6. TACATGACATGGACCGGTTTTCCCGGTAATCCGTATTTGCT (site TACCTGACTAG)

output:
1. 0.724
2. 0.346
3. 0.572
4. 0.806
5. 0.0145
6. 0.938

Consider the following items and state reported recombinant UMI read abundance (log10) for each.
1. TGTACCCCATGGACCGGTTTTCCCGGTAATCCGTATTTGTA (site TGTGCCCCTTA)
2. TAAAGTCCATGGACCGGTTTTCCCGGTAATCCGTATTTGTA (site TAAAGGCCTTA)
3. GATCATCCATGGACCGGTTTTCCCGGTAATCCGTATTTGCT (site GATGATCCTAG)

output:
[0, 0.00572, 0]
